Data origin: patent US12448369B2

target: Porcine ventricle myofibrils (ventricular myosin ATPase) (Sus scrofa); construct: Myofibrils from porcine cardiac muscle was isolated from the left ventricle of Yucatan minipigs; tissue Exemplar Genetics; host or cells: left ventricle of Yucatan minipigs, myofibrils prepared in house; experiment: Myofibril ATPase assay, porcine ventricle myofibrils; assay type: biochemical, porcine (Yucatan minipigs); conditions: Y75 value (no ‡ mark); porcine ventricle myofibrils
Sequence (P79293 whole entry): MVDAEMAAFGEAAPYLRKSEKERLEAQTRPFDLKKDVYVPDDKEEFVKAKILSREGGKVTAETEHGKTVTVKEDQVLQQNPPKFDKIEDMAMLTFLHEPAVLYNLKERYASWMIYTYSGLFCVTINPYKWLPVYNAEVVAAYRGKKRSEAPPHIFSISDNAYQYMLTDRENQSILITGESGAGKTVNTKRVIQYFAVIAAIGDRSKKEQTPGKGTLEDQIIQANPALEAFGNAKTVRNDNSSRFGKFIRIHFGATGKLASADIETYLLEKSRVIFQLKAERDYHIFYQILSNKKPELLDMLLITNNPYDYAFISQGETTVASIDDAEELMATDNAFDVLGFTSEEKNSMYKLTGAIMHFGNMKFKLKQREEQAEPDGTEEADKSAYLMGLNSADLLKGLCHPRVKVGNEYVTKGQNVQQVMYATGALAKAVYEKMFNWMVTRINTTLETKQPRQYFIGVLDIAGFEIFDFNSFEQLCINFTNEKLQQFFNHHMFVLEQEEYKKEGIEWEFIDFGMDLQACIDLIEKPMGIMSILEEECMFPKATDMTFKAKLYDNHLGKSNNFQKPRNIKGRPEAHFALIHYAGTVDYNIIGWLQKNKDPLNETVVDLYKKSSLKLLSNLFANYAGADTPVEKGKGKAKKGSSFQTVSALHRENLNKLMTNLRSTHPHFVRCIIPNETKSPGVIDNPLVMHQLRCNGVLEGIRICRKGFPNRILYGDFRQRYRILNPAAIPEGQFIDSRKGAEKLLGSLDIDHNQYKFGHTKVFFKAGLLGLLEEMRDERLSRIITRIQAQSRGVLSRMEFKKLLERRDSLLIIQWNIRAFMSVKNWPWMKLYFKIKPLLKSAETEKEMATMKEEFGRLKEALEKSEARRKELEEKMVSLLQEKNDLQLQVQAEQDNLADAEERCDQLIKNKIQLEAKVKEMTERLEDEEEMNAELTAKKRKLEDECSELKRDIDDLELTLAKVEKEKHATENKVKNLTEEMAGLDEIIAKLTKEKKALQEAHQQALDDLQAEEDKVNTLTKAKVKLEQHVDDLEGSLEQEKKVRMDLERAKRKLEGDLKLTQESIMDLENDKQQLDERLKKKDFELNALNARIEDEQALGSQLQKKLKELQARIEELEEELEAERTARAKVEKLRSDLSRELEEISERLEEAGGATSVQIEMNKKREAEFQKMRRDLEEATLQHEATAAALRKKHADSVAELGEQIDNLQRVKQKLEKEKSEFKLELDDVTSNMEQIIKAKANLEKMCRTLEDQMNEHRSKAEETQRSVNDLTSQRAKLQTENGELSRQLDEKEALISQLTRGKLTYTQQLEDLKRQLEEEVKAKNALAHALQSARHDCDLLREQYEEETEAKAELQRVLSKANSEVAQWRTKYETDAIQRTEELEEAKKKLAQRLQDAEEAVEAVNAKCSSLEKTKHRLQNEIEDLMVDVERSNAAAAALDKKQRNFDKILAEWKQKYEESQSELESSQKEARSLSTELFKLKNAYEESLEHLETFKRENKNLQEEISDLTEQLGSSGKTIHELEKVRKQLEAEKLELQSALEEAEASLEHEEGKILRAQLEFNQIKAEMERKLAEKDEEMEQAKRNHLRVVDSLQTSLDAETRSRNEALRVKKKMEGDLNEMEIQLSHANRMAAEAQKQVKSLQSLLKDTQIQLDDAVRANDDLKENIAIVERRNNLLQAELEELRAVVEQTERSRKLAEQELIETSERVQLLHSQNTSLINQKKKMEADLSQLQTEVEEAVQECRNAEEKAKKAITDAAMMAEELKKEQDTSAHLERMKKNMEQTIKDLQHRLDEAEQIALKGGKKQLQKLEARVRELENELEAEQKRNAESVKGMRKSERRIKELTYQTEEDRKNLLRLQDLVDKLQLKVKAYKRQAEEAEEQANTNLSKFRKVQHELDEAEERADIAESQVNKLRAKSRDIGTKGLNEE
Readings of Ventricular EC25 for the listed compounds
Write the answer as a number in µM, unit excluded.

See these solved cases before continuing.
{"compound": "Cc1c(CC(=O)N[C@H](C)c2ccc(C#N)cc2F)c(=O)[nH]c2ccc(F)c(C3CC3)c12", "Ventricular EC25, µM": 0.11}
{"compound": "Cc1c(C2(C(=O)N[C@@H](C)c3cccc(C#N)n3)CC2)c(=O)[nH]c2ccc(F)c(F)c12 (single isomer, unassigned)", "Ventricular EC25, µM": 100.00}
{"compound": "Cc1cc(C#N)cnc1[C@@H](C)NC(=O)Cc1c(O)c2c(C)c(F)ccc2[nH]c1=O", "Ventricular EC25, µM": 38.45}
{"compound": "Cc1c(C(F)(F)C(=O)N[C@@H](C)c2ncc(F)cc2F)c(=O)[nH]c2ccc(F)cc12 (single isomer, unassigned)", "Ventricular EC25, µM": 0.61}
{"compound": "C[C@@H](NC(=O)C(F)(F)c1cc2c(F)c(F)ccc2[nH]c1=O)c1ncc(C#N)cn1 (single isomer, unassigned)", "Ventricular EC25, µM": 1.22}
{"compound": "Cc1c(C2(C(=O)N[C@@H]3CCc4cc(C#N)cnc43)CC2)c(=O)[nH]c2ccc(F)c(F)c12 (single isomer, unassigned)", "Ventricular EC25, µM": 100.00}
{"compound": "Cc1c(CC(=O)N[C@@H](C)c2ccc(C#N)nn2)c(=O)[nH]c2cccc(C#N)c12", "Ventricular EC25, µM": 0.67}
{"compound": "C[C@H](NC(=O)Cc1cc2cc(C3CC3)ccc2[nH]c1=O)c1ccc(F)cc1F", "Ventricular EC25, µM": 100.00}

Lookup: Can you share its Ventricular EC25? I mean this compound: CCc1c(CC(=O)N[C@H](C)c2ncc(C#N)cn2)c(=O)[nH]c2ccc(F)c(C)c12 (single isomer, unassigned)
Found: 0.49

Lookup: Item: Cc1nc([C@H](C)NC(=O)Cc2c(C)c3c(C)c(F)ccc3[nH]c2=O)ncc1C#N (single isomer, unassigned)
Found: 1.62

Lookup: Item: `Cc1c(CC(=O)N[C@@H](C)c2ccc(F)cc2F)c(=O)[nH]c2ccc(F)c(Cl)c12`
Found: 0.07
